assay method text: Apparent terminal half life in Sprague-Dawley rat at 20.2 mg/kg, po
Assay type: ADME, organism-based
Parameters: dose 20.2 mg/kg, route oral
condition info: in vivo, read-out: betat1/2(app) (converted)
measurement name: half-life (h)
Give bare numbers, in h.

### Prompt Fill in the blank: the reported half-life of `CS(=O)(=O)c1ccc(-c2cnc(N)c(-c3ccc(C(F)(F)F)nc3)c2)cc1` is ____.
### Response 8.5

---

assay method text: Partition coefficient, log D of the compound at pH 7.4 by phase gradient HPLC analysis
Assay type: physicochemical
condition info: octanol/water
measurement name: chromatographic logD

CS(=O)(=O)c1ccc(-c2cnc(N)c(-c3ccc(C(N)=O)cc3)c2)cc1    1.5
Cc1ccc(-c2cc(-c3ccc(S(C)(=O)=O)cc3)cnc2N)cn1    1.8
COc1cc(-c2cc(-c3ccc(S(C)(=O)=O)cc3)cnc2N)ccc1O    1.9
CNC(=O)c1ccc(-c2cc(-c3ccc(S(C)(=O)=O)cc3)cnc2N)cc1    1.7
CS(=O)(=O)c1ccc(-c2cnc(N)c(-c3ccc(CO)nc3)c2)cc1    1.2
CS(=O)(=O)c1ccc(-c2cnc(N)c(-c3ccc(C(F)(F)F)c(F)c3)c2)cc1    3.1
Cc1ccc(-c2cc(-c3ccc(S(C)(=O)=O)cc3)cnc2N)c2cccnc12    2.6
Cc1ccc(-c2cc(-c3ccc(S(C)(=O)=O)cc3)cnc2N)cc1C(F)(F)F    3.6
CS(=O)(=O)c1ccc(-c2cnc(N)c(-c3ccc(C#N)cc3)c2)cc1    2.4

### Prompt Quick check: chromatographic logD of `CS(=O)(=O)c1ccc(-c2cnc(N)c(-c3ccc(C(F)(F)F)cc3)c2)cc1` ?
### Response 3.4

---

assay method text: Total blood clearance in Sprague-Dawley rat at […], iv
Format: ADME, organism-based
Parameters: dose 4.7 mg/kg, route intravenous
condition info: whole blood
measurement name: clearance (mL/min/kg)
Give bare numbers, in mL/min/kg.

### Prompt Quick one: clearance of `COc1ccc(-c2cc(-c3ccc(S(C)(=O)=O)cc3)cnc2N)cn1` ?
### Response 18.3

---

assay method text: Oral bioavailability in Sprague-Dawley rat at 5 mg/kg
Type: ADME, organism-based
condition info: in vivo
measurement name: bioavailability (%)
Numbers only, in %.

### Prompt Reported bioavailability for `COc1ccc(-c2cc(-c3ccc(S(C)(=O)=O)cc3)cnc2N)cn1` : what is it?
### Response 83

---

assay method text: Oral bioavailability in Sprague-Dawley rat at 20.2 mg/kg
Assay type: ADME, organism-based
condition info: in vivo
measurement name: bioavailability (%)
One number for each entry, in %.

### Prompt Endpoint output: bioavailability of `CS(=O)(=O)c1ccc(-c2cnc(N)c(-c3ccc(C(F)(F)F)nc3)c2)cc1` . Value?
### Response 51

---

assay method text: AUC (0 to infinity) in Sprague-Dawley rat at 5 mg/kg, po
Format: ADME, organism-based
Design: time infinity, dose 5 mg/kg, route oral
condition info: plasma
measurement name: AUC(0-inf)
Could you write the number and then its unit?

### Prompt Fill in the blank: the reported AUC(0-inf) of `COc1ccc(-c2cc(-c3ccc(S(C)(=O)=O)cc3)cnc2N)cn1` is ____.
### Response 11.8 µM·h

---

Field: chromatographic logD. Provide a value for each of the compounds that follow.
assay method text: Partition coefficient, log D of the compound at pH 7.4 by phase gradient HPLC analysis
Assay type: physicochemical
condition info: octanol/water
Give bare numbers.

Solved entries:
CS(=O)(=O)c1ccc(-c2cnc(N)c(-c3cccc(C(F)(F)F)c3)c2)cc1    3.3
COc1ccc(-c2cc(-c3ccc(S(C)(=O)=O)cc3)cnc2N)cn1    2.2
CS(=O)(=O)c1ccc(-c2cnc(N)c(-c3ccc(S(C)(=O)=O)cc3)c2)cc1    2
CS(=O)(=O)c1ccc(-c2cnc(N)c(-c3ccc(F)nc3)c2)cc1    1.1

### Prompt What does the record list as chromatographic logD for CS(=O)(=O)c1ccc(-c2cnc(N)c(-c3ccc(C(F)(F)F)nc3)c2)cc1 [MMV-048] ?
### Response 2.6
